Here the recorded IC50 is given for each entry.
# experimental.target: B receptor of endothelin (Rattus norvegicus, UniProt P21451)
# Construct: A membrane preparation is produced from the posterior cortex plus cerebellum of a rat; from tissue; host or cells: rat posterior cortex plus cerebellum, membrane preparation
# Sequence (P21451 27-442): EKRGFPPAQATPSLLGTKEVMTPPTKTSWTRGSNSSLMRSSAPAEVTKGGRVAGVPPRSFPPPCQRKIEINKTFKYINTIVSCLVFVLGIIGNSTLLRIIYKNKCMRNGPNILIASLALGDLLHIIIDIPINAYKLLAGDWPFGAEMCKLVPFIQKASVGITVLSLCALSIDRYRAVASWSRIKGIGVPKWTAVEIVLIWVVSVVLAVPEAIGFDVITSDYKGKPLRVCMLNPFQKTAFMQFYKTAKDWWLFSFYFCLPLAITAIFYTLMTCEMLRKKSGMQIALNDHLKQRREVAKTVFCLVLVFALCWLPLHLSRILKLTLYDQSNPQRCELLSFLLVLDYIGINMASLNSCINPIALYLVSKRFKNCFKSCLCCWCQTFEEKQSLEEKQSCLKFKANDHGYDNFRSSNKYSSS
# measurement.protocol: Study of the activity on the B receptor of endothelin: displacement of 125I Endothelin on membrane preparation of rat posterior cortex plus cerebellum
# Type: binding
# conditions: Table I, rat posterior cortex plus cerebellum membranes, 25° C., 60 minutes, read-out: B receptor of endothelin IC50 in nanomoles
# Procedure: STUDY OF THE ACTIVITY ON THE B RECEPTOR OF ENDOTHELIN A membrane preparation is produced from the posterior cortex plus cerebellum of a rat. The tissue is ground up in a POLYTRON in a 50 mM Tris buffer pH=7.4. After 30 minutes at 25° C. […] 2 ml aliquots are distributed into hemolysis tubes and ^125 I Endothelin (approximately 50000 dpm/tube) and the product to be studied are added. […] In this way the 50% inhibitory concentration is determined. […]
Output spec: scalar in nM, unitless text.

Data point: COc1ccc(CSc2nc(Sc3ccccc3)n(Cc3cc4c(cc3Cl)OCO4)c2C(=O)O)cc1 [Example 10] ; IC50 = 420

Data point: COc1ccc(Sc2nc(Sc3ccccc3)n(Cc3cc4c(cc3Cl)OCO4)c2C(=O)O)cc1 [Example 15] ; IC50 = 110

Data point: COc1ccc(Sc2nc(Sc3ccc(OC)cc3)n(Cc3cc4c(cc3Cl)OCO4)c2C(=O)O)cc1 [Example 18] ; IC50 = 88

The reported numbers originate from patent US5856509A.
